- Tested on: Hs578T multi-cell spheroids, viability
- assay.summary: Anticancer human tumor Hs578T cell line growth inhibition [IpAb];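 also: drug exposure lasted 7 days before readout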
- run.parameters: second compound 1 µM; first compound 0.001 µM; stronger effect = lower value
assay.endpoint: viability, T/C (%)
Report as a plain number; the unit % is understood.

Look up and report measured viability, T/C for this entry: Cn1ncnc1[C@H]1c2n[nH]c(=O)c3cc(F)cc(c23)N[C@@H]1c1ccc(F)cc1 + CCN1CCN(Cc2ccc(Nc3ncc(F)c(-c4cc(F)c5nc(C)n(C(C)C)c5c4)n3)nc2)CC1
102

Look up and report measured viability, T/C for this entry: Cn1ncnc1[C@H]1c2n[nH]c(=O)c3cc(F)cc(c23)N[C@@H]1c1ccc(F)cc1 + CC(C)NCC(C(=O)N1CCN(c2ncnc3c2C(C)CC3O)CC1)c1ccc(Cl)cc1
61.3

Look up and report measured viability, T/C for this entry: CC(C)n1nc(-c2ccc3oc(N)nc3c2)c2c(N)ncnc21 + CCN1CCN(Cc2ccc(Nc3ncc(F)c(-c4cc(F)c5nc(C)n(C(C)C)c5c4)n3)nc2)CC1
90.6

Look up and report measured viability, T/C for this entry: CC(C)n1nc(-c2ccc3oc(N)nc3c2)c2c(N)ncnc21 + CC(C)NCC(C(=O)N1CCN(c2ncnc3c2C(C)CC3O)CC1)c1ccc(Cl)cc1
55.3

* * *

- Test system: Hs578T multi-cell spheroids, viability
- assay.summary: Anticancer human tumor Hs578T cell line growth inhibition [IpAb];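 also: drug exposure lasted 7 days before readout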
- run.parameters: curve of first compound; second compound 0.0316 µM
Would you kindly list IC50 for each of these molecules?
Report as a plain number; the unit nM is understood.

Look up and report measured IC50 for this entry: CC1(C)CCC(CN2CCN(c3ccc(C(=O)NS(=O)(=O)c4ccc(NCC5CCOCC5)c([N+](=O)[O-])c4)c(Oc4cnc5[nH]ccc5c4)c3)CC2)=C(c2ccc(Cl)cc2)C1 + CCN1CCN(Cc2ccc(Nc3ncc(F)c(-c4cc(F)c5nc(C)n(C(C)C)c5c4)n3)nc2)CC1
5580

Look up and report measured IC50 for this entry: CC(C)(C)c1cnc(CSc2cnc(NC(=O)C3CCNCC3)s2)o1 + CCN1CCN(Cc2ccc(Nc3ncc(F)c(-c4cc(F)c5nc(C)n(C(C)C)c5c4)n3)nc2)CC1
181

* * *

- Tested on: Hs578T multi-cell spheroids, viability
- assay.summary: Anticancer human tumor Hs578T cell line growth inhibition [IpAb];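 also: drug exposure lasted 7 days before readout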
- run.parameters: second compound 0.0316 µM; first compound 0.0316 µM; stronger effect = lower value
assay.endpoint: viability, T/C

Look up and report measured viability, T/C for this entry: Cn1ncnc1[C@H]1c2n[nH]c(=O)c3cc(F)cc(c23)N[C@@H]1c1ccc(F)cc1 + CCN1CCN(Cc2ccc(Nc3ncc(F)c(-c4cc(F)c5nc(C)n(C(C)C)c5c4)n3)nc2)CC1
87.3%

Look up and report measured viability, T/C for this entry: CC1(C)CCC(CN2CCN(c3ccc(C(=O)NS(=O)(=O)c4ccc(NCC5CCOCC5)c([N+](=O)[O-])c4)c(Oc4cnc5[nH]ccc5c4)c3)CC2)=C(c2ccc(Cl)cc2)C1 + CCN1CCN(Cc2ccc(Nc3ncc(F)c(-c4cc(F)c5nc(C)n(C(C)C)c5c4)n3)nc2)CC1
96.4%

* * *

- Test system: Hs578T multi-cell spheroids, viability
- assay.summary: Anticancer human tumor Hs578T cell line growth inhibition [IpAb]; active means viability on the fitted dose curve at most 10% of control; inactive means the rest;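 also: drug exposure lasted 7 days before readout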
- run.parameters: second compound 1 µM; first compound 3 µM
Select the correct class. Options are active, inactive and nothing else.

I'd appreciate the recorded outcome for Cn1cnc2c(F)c(Nc3ccc(Br)cc3Cl)c(C(=O)NOCCO)cc21 + CCN1CCN(Cc2ccc(Nc3ncc(F)c(-c4cc(F)c5nc(C)n(C(C)C)c5c4)n3)nc2)CC1 from this test.
inactive

I'd appreciate the recorded outcome for CC(C)(C)c1cnc(CSc2cnc(NC(=O)C3CCNCC3)s2)o1 + CC(C)NCC(C(=O)N1CCN(c2ncnc3c2C(C)CC3O)CC1)c1ccc(Cl)cc1 from this test.
active

I'd appreciate the recorded outcome for CC(C)(C)c1cnc(CSc2cnc(NC(=O)C3CCNCC3)s2)o1 + CCN1CCN(Cc2ccc(Nc3ncc(F)c(-c4cc(F)c5nc(C)n(C(C)C)c5c4)n3)nc2)CC1 from this test.
active

I'd appreciate the recorded outcome for Cn1cnc2c(F)c(Nc3ccc(Br)cc3Cl)c(C(=O)NOCCO)cc21 + CC(C)NCC(C(=O)N1CCN(c2ncnc3c2C(C)CC3O)CC1)c1ccc(Cl)cc1 from this test.
inactive
